Target under test: T1, human Claudin 18.2 (CLDN18.2) (human, UniProt P56856-2 1-261)
T1 construct: whole, on cells; recombinantly expressed on CHO, HEK293, NCI-N87, NUGC4 or PANC-1 cells; also called CHO-CLDN18.2
Method notes: FACS on CHO-CLDN18.2 cells
pEC50: −log10 of the molar value.
Measurement kind: pEC50

Binder	Measurement kind	Reported result
364D1A7-H4L5 (antibody, V domains shown, humanized IgG; constant regions not specified) VH: DVQLVESGGGLVQPGGSLRLSCAASGFTFSSFGMHWVRQAPGKGLEWVAYISSGSGSIYYADTVKGRFTLSRDNPKNTLYLQMNSLRAEDTAVYYCATSYYYGNALEYWGQGTTVTVSS VL: DVVLTQSPDSLAVSLGERATISCKSSQSLFNVGNQKNYLTWYQQKPGQTPTLLIYWASTRKSGVPDRFTGSGSGTDFTLTISSLQAEDVAVYYCQNVYSYPLTFGAGTKVEIK	pEC50	8.36
364D1A7-H2L4 (antibody, V domains shown, humanized IgG; constant regions not specified) VH: EVQLVESGGGLVQPGGSLRLSCAASGFTFSSFGMHWVRQAPGKGLEWVAYISSGSGSIYYADTVKGRFTISRDNPKNSLYLQMNSLRAEDTAVYYCATSYYYGNALEYWGQGTTVTVSS VL: DVVLTQSPDSLAVSLGERATISCKSSQSLFNVGNQKNYLTWYQQKPGQTPTLLIYWASTRKSGVPDRFSGSGSGTDFTLTISSLQAEDVAVYYCQNVYSYPLTFGGGTKVEIK	pEC50	8.40
364D1A7-H1L3 (antibody, V domains shown, humanized IgG; constant regions not specified) VH: EVQLVESGGGLVQPGGSLRLSCAASGFTFSSFGMHWVRQAPGKGLEWVSYISSGSGSIYYADTVKGRFTISRDNAKNSLYLQMNSLRAEDTAVYYCATSYYYGNALEYWGQGTTVTVSS VL: DVVLTQSPDSLAVSLGERATINCKSSQSLFNVGNQKNYLTWYQQKPGQTPKLLIYWASTRKSGVPDRFSGSGSGTDFTLTISSLQAEDVAVYYCQNVYSYPLTFGGGTKVEIK	pEC50	8.39
